- ASSAY_REMARKS: self-splicing fitness, log relative to wild type (ln ratio); higher = more splicing; Tetrahymena group I intron in knt gene, E. coli kanamycin selection, DiMSum; sequences stand for … in CUCUCU…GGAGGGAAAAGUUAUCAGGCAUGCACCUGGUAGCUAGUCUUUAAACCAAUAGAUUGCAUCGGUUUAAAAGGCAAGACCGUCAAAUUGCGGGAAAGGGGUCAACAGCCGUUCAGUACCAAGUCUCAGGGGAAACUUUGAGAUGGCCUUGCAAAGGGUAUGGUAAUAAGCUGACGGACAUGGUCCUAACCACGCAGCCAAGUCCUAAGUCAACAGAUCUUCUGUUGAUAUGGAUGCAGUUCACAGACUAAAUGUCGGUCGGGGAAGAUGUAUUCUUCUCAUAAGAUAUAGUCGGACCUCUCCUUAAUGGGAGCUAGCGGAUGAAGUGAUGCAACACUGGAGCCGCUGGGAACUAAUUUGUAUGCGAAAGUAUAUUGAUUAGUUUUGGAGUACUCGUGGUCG;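 also: selection with 25 µg/mL kanamycin versus none on LB agar overnight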
- CONDITION_CONTEXT: 30 °C
Would you kindly list self-splicing fitness (ln) for each of these sequences?
Numbers only.

Worked examples follow.
>  <POLYMER_SEQUENCE>
CUGUAGCAAUAUUACGAUGG

>  <self-splicing fitness (ln)>
-2.74

$$$$
>  <POLYMER_SEQUENCE>
ACAGAGCAAUAUUACGACUC

>  <self-splicing fitness (ln)>
-2.94

$$$$
>  <POLYMER_SEQUENCE>
GGGCAGCAAUAUUACGAGGG

>  <self-splicing fitness (ln)>
-3.93

$$$$
>  <POLYMER_SEQUENCE>
CUGGAGCAAUAUUACGUGGU

>  <self-splicing fitness (ln)>
-3.53

$$$$

[Q] # get_value(readout='self-splicing fitness (ln)', item= CGGGAGCAAUAUUACGUCUC )
[A] -2.33

====

Would you kindly list self-splicing fitness (ln) for each of these sequences?
- ASSAY_REMARKS: self-splicing fitness, log relative to wild type (ln ratio); higher = more splicing; Tetrahymena group I intron in knt gene, E. coli kanamycin selection, DiMSum; sequences stand for … in CUCUCU…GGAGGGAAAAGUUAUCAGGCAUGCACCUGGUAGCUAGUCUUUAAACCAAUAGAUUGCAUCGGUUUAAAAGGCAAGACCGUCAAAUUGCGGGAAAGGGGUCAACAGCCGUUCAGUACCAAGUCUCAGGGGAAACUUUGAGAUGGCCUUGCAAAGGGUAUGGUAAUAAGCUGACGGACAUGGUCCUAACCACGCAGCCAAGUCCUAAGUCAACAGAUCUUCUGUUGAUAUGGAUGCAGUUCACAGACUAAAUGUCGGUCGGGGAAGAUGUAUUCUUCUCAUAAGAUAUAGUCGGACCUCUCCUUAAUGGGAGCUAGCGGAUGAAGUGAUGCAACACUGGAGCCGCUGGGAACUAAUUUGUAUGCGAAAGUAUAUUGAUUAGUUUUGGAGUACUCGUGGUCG
- CONDITION_CONTEXT: 30 °C
One number for each entry.

Worked examples follow.
>  <POLYMER_SEQUENCE>
UAGCAGCAAUAUUACGGUAU

>  <RECORDED_NUMBER>
-2.97

$$$$
>  <POLYMER_SEQUENCE>
GAAUAGCAAUAUUACGGGGG

>  <RECORDED_NUMBER>
-2.93

$$$$
>  <POLYMER_SEQUENCE>
GCCAAGCAAUAUUACGCUAG

>  <RECORDED_NUMBER>
-3.06

$$$$
>  <POLYMER_SEQUENCE>
ACAUAGCAAUAUUACGCGGG

>  <RECORDED_NUMBER>
-3.09

$$$$

Continue with the next sequence.
[Q] # get_value(readout='self-splicing fitness (ln)', item= GUCGAGCAAUAUUACGAGGC )
[A] -3.01
